Test system: UACC-257
Experiment: Antiproliferation activity against human UACC257 cells after 48 hrs by SRB assay
Type: functional, cell-based
Settings: UACC-257, 48 h
experimental_endpoint: IC50 (nM)
One number for each entry, in nM.

Challenge: Value lookup for IC50; key = O=C(Nc1ccc(-n2ccc3c(NC(=O)c4ccccc4)nccc32)cc1)c1ccc(N2CCOCC2)c(C(F)(F)F)c1
Response given: 1980

Please examine the following record next.
Challenge: Value lookup for IC50; key = CCN1CCN(Cc2ccc(NC(=O)Nc3ccc(-n4ccc5c(NC(=O)c6ccccc6)nccc54)cc3)cc2C(F)(F)F)CC1
Response given: 1590

---

Test system: SK-MEL-5
Test: Antiproliferation activity against human SK-MEL-5 cells after 48 hrs by SRB assay
Type: functional, cell-based
Conditions: SK-MEL-5, 48 h
experimental_endpoint: IC50 (nM)
One number for each entry, in nM.

Challenge: Value lookup for IC50; key = CCN1CCN(Cc2ccc(NC(=O)Nc3ccc(-n4ccc5c(NC(=O)c6ccccc6)nccc54)cc3)cc2C(F)(F)F)CC1
Response given: 764

More entries:
Challenge: Value lookup for IC50; key = O=C(Nc1ccc(-n2ccc3c(NC(=O)c4ccccc4)nccc32)cc1)c1ccc(N2CCOCC2)c(C(F)(F)F)c1
Response given: 138

---

Test system: A-375
Assay: Antiproliferation activity against human A375P cells after 48 hrs by MTT assay in presence of fetal bovine serum
Assay type: functional, cell-based
Conditions: A-375, 48 h
Hi there, I'd appreciate the recorded IC50 for every entry that follows.
Give bare numbers, in µM.

Worked examples follow.
Challenge: Reported IC50 for A-375, given Cc1cn(-c2cc(C(=O)Nc3ccc(-n4ccc5c(NC(=O)c6ccccc6)nccc54)cc3)cc(C(F)(F)F)c2)cn1 ?
Response given: 0.8

Challenge: Reported IC50 for A-375, given Nc1nccc2c1ccn2-c1ccc(NC(=O)Nc2ccc(Cl)c(C(F)(F)F)c2)cc1 ?
Response given: 8

Challenge: Reported IC50 for A-375, given CCN1CCN(Cc2ccc(NC(=O)Nc3ccc(-n4ccc5c(NC(=O)c6ccccc6)nccc54)cc3)cc2C(F)(F)F)CC1 ?
Response given: 0.095

Could you tell me IC50 for each of these compounds? They are listed below.
1. O=C(Nc1ccc(-n2ccc3c(NC(=O)c4ccccc4)nccc32)cc1)Nc1ccc(Cl)c(C(F)(F)F)c1
2. O=C(Nc1nccc2c1ccn2-c1ccc(NC(=O)c2ccc(-c3cc(C(F)(F)F)ccc3Cl)o2)cc1)c1ccccc1
3. Nc1nccc2c1ccn2-c1ccc(NC(=O)Nc2cccc(C(F)(F)F)c2)cc1

Response given:
2.4
1
5.4

Could you tell me IC50 for each of these compounds? They are listed below.
1. Nc1nccc2c1ccn2-c1ccc(NC(=O)c2ccc(Cl)c(C(F)(F)F)c2)cc1
2. CNC(=O)c1cc(Oc2ccc(NC(=O)Nc3ccc(Cl)c(C(F)(F)F)c3)cc2)ccn1
3. O=C(Nc1ccc(-n2ccc3c(NC(=O)c4ccccc4)nccc32)cc1)Nc1cc(C(F)(F)F)cc(C(F)(F)F)c1
4. O=C(Nc1ccc(-n2ccc3c(NC(=O)c4ccccc4)nccc32)cc1)c1cccc(C(F)(F)F)c1
5. O=C(Nc1ccc(-n2ccc3c(NC(=O)c4ccccc4)nccc32)cc1)Nc1cccc(C(F)(F)F)c1

Response given:
1. 3.8
2. 5.6
3. 1.8
4. 0.1
5. 7

Could you tell me IC50 for each of these compounds? They are listed below.
1. O=C(Nc1ccc(-n2ccc3c(NC(=O)c4ccccc4)nccc32)cc1)c1ccc(N2CCOCC2)c(C(F)(F)F)c1
2. O=C(Nc1ccc(-n2ccc3c(NC(=O)c4ccccc4)nccc32)cc1)c1ccc(Cl)c(C(F)(F)F)c1

Response given:
1: 0.007; 2: 0.0164

---

System: M14
Assay: Antiproliferation activity against human M14 cells after 48 hrs by SRB assay
Type: functional, cell-based
Settings: M14, 48 h
Hi there, I'd appreciate the recorded pIC50 for every entry that follows.
One number for each entry, as −log10 of the molar value.

Challenge: Value lookup for pIC50; key = O=C(Nc1ccc(-n2ccc3c(NC(=O)c4ccccc4)nccc32)cc1)c1ccc(N2CCOCC2)c(C(F)(F)F)c1
Response given: 6.12

Please examine the following record next.
Challenge: Value lookup for pIC50; key = CCN1CCN(Cc2ccc(NC(=O)Nc3ccc(-n4ccc5c(NC(=O)c6ccccc6)nccc54)cc3)cc2C(F)(F)F)CC1
Response given: 5.91

---

Hi there, I'd appreciate the recorded IC50 for every entry that follows.
System: A-375
Assay: Antiproliferation activity against human A375P cells after 48 hrs by MTT assay in presence of fetal bovine serum
Assay type: functional, cell-based
Conditions: A-375, 48 h
Give bare numbers, in µM.

Worked examples follow.
Challenge: Value lookup for IC50; key = O=C(Nc1ccc(-n2ccc3c(NC(=O)c4ccccc4)nccc32)cc1)Nc1ccc(Cl)c(Cl)c1
Response given: 0.2

Challenge: Value lookup for IC50; key = O=C(Nc1ccc(-n2ccc3c(NC(=O)c4ccccc4)nccc32)cc1)c1cc(N2CCOCC2)cc(C(F)(F)F)c1
Response given: 0.3

Challenge: Value lookup for IC50; key = Cc1cc(NC(=O)c2ccc(Cl)c(C(F)(F)F)c2)ccc1-n1ccc2c(NC(=O)c3ccccc3)nccc21
Response given: 2.7

More entries:
Challenge: Value lookup for IC50; key = Nc1nccc2c1ccn2-c1ccc(NC(=O)c2ccc(N3CCOCC3)c(C(F)(F)F)c2)cc1
Response given: 6.2
